src = patent US9527885B2

Test system: HCV genotype 1a (H77 strain) replicon in HUH-7 cells
Test: HCV replicon luciferase reporter assay, genotype 1a
Assay type: cell-based
Settings: Hepatitis C virus, Huh-7, 72 h, HCV genotype 1a replicon luciferase reporter, 3 days incubation, range class, read-out: LE_1a (EC50, range)
Description: An HCV replicon whole cell system was established as described by Lohmann V, Korner F, Koch J, Herian U, Theilmann L, Bartenschlager R., Science 285(5424):110-3 (1999) and modified to introduce a luciferase reporter, as first described by Krieger et al (Krieger N, Lohmann V, and Bartenschlager R, J. Virol. 75(10):4614-4624 (2001)). […]
Listing of recorded EC50 by entry.

| cpd_smiles | EC50 |
| --- | --- |
| COc1ccc2c(O[C@@H]3C[C@H]4C(=O)N[C@]5(C(=O)NS(=O)(=O)C6(CF)CC6)C[C@H]5/C=C\CC[C@H](C)C[C@@H](C)[C@H](NC(=O)OC(C)(C)C(F)(F)F)C(=O)N4C3)nc(N(C)C)cc2c1 | 4.82 to 103 nM |
| COc1ccc2c(O[C@@H]3C[C@H]4C(=O)N[C@]5(C(=O)NS(=O)(=O)C6(C)CC6)C[C@H]5/C=C\CC[C@@H](C)C[C@@H](C)[C@H](NC(=O)OC(C)(C)C(F)(F)F)C(=O)N4C3)nc(N(C)C)cc2c1 | < 5.46 nM |
| C[C@@H]1CCC[C@H](O)[C@@H]2C[C@@]2(C(=O)NS(=O)(=O)C2(C)CC2)NC(=O)[C@@H]2C[C@@H](Oc3ncc(OC4CC4)c4ccccc34)CN2C(=O)[C@@H](NC(=O)OC(C)(C)C(F)(F)F)[C@H](C)C1 | 4.82 to 103 nM |
| COc1ccc2c(O[C@@H]3C[C@H]4C(=O)N[C@]5(C(=O)NS(=O)(=O)C6(CF)CC6)C[C@H]5/C=C\CC[C@@H](C)C[C@@H](C)[C@H](NC(=O)OC(C)(C)C(C)(F)F)C(=O)N4C3)nc(N(C)C)cc2c1 | 4.82 to 103 nM |
| COc1ccc2c(O[C@@H]3C[C@H]4C(=O)N[C@]5(C(=O)NS(=O)(=O)C6(C)CC6)C[C@H]5/C=C\CC[C@H](C)C[C@@H](C)[C@H](NC(=O)OC(C)(C)C(F)(F)F)C(=O)N4C3)nc(N(C)C)cc2c1 | 4.82 to 103 nM |
| COCCOc1cc2c(Cl)cccc2c(O[C@@H]2C[C@H]3C(=O)N[C@]4(C(=O)NS(=O)(=O)C5(C)CC5)C[C@H]4/C=C\CC[C@@H](C)C[C@@H](C)[C@H](NC(=O)OC(C)(C)C(F)(F)F)C(=O)N3C2)n1 | < 5.46 nM |
| COc1cnc(O[C@@H]2C[C@H]3C(=O)N[C@]4(C(=O)NS(=O)(=O)C5CC5)C[C@H]4/C=C\CC[C@@H](C)C[C@@H](C)[C@H](NC(=O)OC(C)(C)C(F)(F)F)C(=O)N3C2)c2ccccc12 | < 5.46 nM |

###

Listing of recorded EC50 by entry.
Test system: HCV genotype 1b (Con1) replicon in HUH-7 cells
Test: HCV replicon luciferase reporter assay, genotype 1b
Format: cell-based
Conditions: Hepatitis C virus, 72 h, HCV genotype 1b replicon luciferase, 3 days incubation, class symbols, read-out: LE_1b (EC50, range)

| cpd_smiles | study_target | EC50 |
| --- | --- | --- |
| CC[C@@H]1C[C@H](C)CC/C=C\[C@@H]2C[C@@]2(C(=O)NS(=O)(=O)C2(C)CC2)NC(=O)[C@@H]2C[C@@H](Oc3nccc4cc(OC)ccc34)CN2C(=O)[C@H]1NC(=O)OC(C)(C)C | HCV genotype 1b (Con1) replicon in HUH-7 cells | < 5.46 nM |
| COc1ccc2c(O[C@@H]3C[C@H]4C(=O)N[C@]5(C(=O)NS(=O)(=O)C6(CF)CC6)C[C@H]5/C=C\CC[C@@H](C)C[C@@H](C)[C@H](NC(=O)OC(C)(C)C(F)(F)F)C(=O)N4C3)cc(Cl)nc2c1 | HCV genotype 1b (Con1) replicon in HUH-7 cells | < 5.46 nM |

###

System: HCV genotype 1b (Con1) replicon in HUH-7 cells
Experiment: HCV replicon luciferase reporter assay, genotype 1b
Format: cell-based
Settings: Hepatitis C virus, 72 h, HCV genotype 1b replicon luciferase, 3 days incubation, class symbols, read-out: LE_1b (EC50, range)
Listing of recorded EC50 by entry.

| compound | EC50 |
| --- | --- |
| C[C@@H]1CC/C=C\[C@@H]2C[C@@]2(C(=O)NS(=O)(=O)C2CC2)NC(=O)[C@@H]2C[C@@H](Oc3ncc(OCC4CC4)c4ccccc34)CN2C(=O)[C@@H](NC(=O)OC(C)(C)C(F)(F)F)[C@H](C)C1 [Compound 4030] | < 5.46 nM |
| CCOc1ccc2c(O[C@@H]3C[C@H]4C(=O)N[C@]5(C(=O)NS(=O)(=O)C6CC6)C[C@H]5/C=C\CC[C@@H](C)C[C@@H](C)[C@H](NC(=O)O[C@@H]5C[C@@H]6C[C@@H]6C5)C(=O)N4C3)nccc2c1 [Compound 5132] | < 5.46 nM |

###

System: HCV genotype 1a (H77 strain) replicon in HUH-7 cells
Assay: HCV replicon luciferase reporter assay, genotype 1a
Assay type: cell-based
Conditions: Hepatitis C virus, Huh-7, 72 h, HCV genotype 1a replicon luciferase, 3 days incubation, range class, read-out: LE_1a (EC50, range)
measured_endpoint: EC50

| cpd_smiles | measured_endpoint | recorded_result |
| --- | --- | --- |
| C[C@@H]1CC/C=C\[C@@H]2C[C@@]2(C(=O)NS(=O)(=O)C2CC2)NC(=O)[C@@H]2C[C@@H](Oc3nc4ccccc4c4ccccc34)CN2C(=O)[C@@H](NC(=O)OC(C)(C)C(F)(F)F)[C@H](C)C1 | EC50 | < 5.46 nM |
| C[C@@H]1CC/C=C\[C@@H]2C[C@@]2(C(=O)NS(=O)(=O)C2CC2)NC(=O)[C@@H]2C[C@@H](Oc3nccc4c5c(ccc34)OC(F)(F)O5)CN2C(=O)[C@@H](NC(=O)O[C@@H]2C[C@@H]3C[C@@H]3C2)[C@H](C)C1 | EC50 | < 5.46 nM |
| COc1ccc2c(O[C@@H]3C[C@H]4C(=O)N[C@]5(C(=O)NS(=O)(=O)C6CC6)C[C@H]5/C=C\CC[C@H](C)C[C@@H](C)[C@H](NC(=O)O[C@@H]5C[C@@H]6C[C@@H]6C5)C(=O)N4C3)nc(-c3ccc(N4CCOCC4)cc3)cc2c1 | EC50 | < 5.46 nM |
| C[C@@H]1CC/C=C\[C@@H]2C[C@@]2(C(=O)NS(=O)(=O)C2(CF)CC2)NC(=O)[C@@H]2C[C@@H](Oc3nc4c(c5ccccc35)OCCC4)CN2C(=O)[C@@H](NC(=O)OC(C)(C)C(C)(F)F)[C@H](C)C1 | EC50 | < 5.46 nM |
| CC[C@@H]1C[C@H](C)CC/C=C\[C@@H]2C[C@@]2(C(=O)NS(=O)(=O)C2(CF)CC2)NC(=O)[C@@H]2C[C@@H](Oc3nccc4c5c(ccc34)N(C)CCO5)CN2C(=O)[C@H]1NC(=O)OC(C)(C)C(C)(F)F | EC50 | < 5.46 nM |
